# credit: patent US9868748B2

biological target: full-length RORγt in Jurkat cells (Homo sapiens (Human)); experiment: RORγt 5xRORE Assay in Jurkat Cells (Assay 2); assay type: cell-based; settings: Nanoluc luciferase reporter, 16-18 hrs, Table 9, read-out: RORγt5X IC50 Range*
Sequence (P51449 other isoform, or with tags, fused parts or gaps): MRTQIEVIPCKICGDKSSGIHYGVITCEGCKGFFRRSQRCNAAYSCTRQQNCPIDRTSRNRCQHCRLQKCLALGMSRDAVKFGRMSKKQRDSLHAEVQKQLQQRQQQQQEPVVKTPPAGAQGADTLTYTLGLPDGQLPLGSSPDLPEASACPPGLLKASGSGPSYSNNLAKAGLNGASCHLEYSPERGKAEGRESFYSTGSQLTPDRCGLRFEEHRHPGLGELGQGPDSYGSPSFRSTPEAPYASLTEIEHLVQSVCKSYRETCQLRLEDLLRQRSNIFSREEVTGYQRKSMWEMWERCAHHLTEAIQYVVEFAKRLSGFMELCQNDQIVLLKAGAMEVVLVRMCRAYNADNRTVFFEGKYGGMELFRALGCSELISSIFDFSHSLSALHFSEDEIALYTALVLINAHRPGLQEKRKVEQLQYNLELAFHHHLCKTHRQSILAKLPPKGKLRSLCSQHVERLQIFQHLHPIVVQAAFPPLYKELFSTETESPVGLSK
Please respond with reported IC50 for every item in the list.

Output reported IC50 of the compound CCS(=O)(=O)c1ccc(CC(=O)Nc2nc3c(s2)CN(Cc2ccncc2)[C@H]3C(C)C)cc1 on full-length RORγt in Jurkat cells (Homo sapiens (Human)).
> 1000 nM

Output reported IC50 of the compound CCS(=O)(=O)c1ccc(CC(=O)Nc2nc3c(s2)CN([C@H](C)Cc2ccccc2C(F)(F)F)[C@@H]3C(C)C)cc1 on full-length RORγt in Jurkat cells (Homo sapiens (Human)).
> 1000 nM

Output reported IC50 of the compound CCS(=O)(=O)c1ccc(CC(=O)Nc2nc3c(s2)CN(Cc2ccc(C(F)(F)F)nc2)C3C(C)C)nc1 (stereo not drawn) on full-length RORγt in Jurkat cells (Homo sapiens (Human)).
< 100 nM

Output reported IC50 of the compound CCS(=O)(=O)c1ccc(CC(=O)Nc2nc3c(s2)CN(C[C@H]2CC[C@](O)(C(F)(F)F)CC2)[C@H]3C(C)C)cc1 (single isomer, unassigned) on full-length RORγt in Jurkat cells (Homo sapiens (Human)).
< 100 nM

Output reported IC50 of the compound CC[C@H]1c2nc(NC(=O)Cc3ccc(S(=O)(=O)CC)cc3)sc2CN1[C@@H](C)Cc1ccccc1 on full-length RORγt in Jurkat cells (Homo sapiens (Human)).
> 1000 nM

Output reported IC50 of the compound CCS(=O)(=O)c1ccc(CC(=O)Nc2nc3c(s2)C(C)N(Cc2ccc(C#N)cc2)[C@H]3C(C)C)cc1 (stereo partly drawn) on full-length RORγt in Jurkat cells (Homo sapiens (Human)).
100 to 1000 nM

Output reported IC50 of the compound CCS(=O)(=O)c1ccc(CC(=O)Nc2nc3c(s2)CN(Cc2ccc(-c4ccc(=O)n(C)c4)cc2)[C@H]3C(C)C)nc1 on full-length RORγt in Jurkat cells (Homo sapiens (Human)).
< 100 nM

Output reported IC50 of the compound CCS(=O)(=O)c1ccc(CC(=O)Nc2nc3c(s2)CN(Cc2ccc(C#N)cc2)[C@H]3C(C)C)nc1 [drawing 230] on full-length RORγt in Jurkat cells (Homo sapiens (Human)).
< 100 nM

Output reported IC50 of the compound CC(C)[C@H]1c2nc(C(=O)NCc3ccc(S(C)(=O)=O)cc3)sc2CN1Cc1ccc(C#N)cc1 on full-length RORγt in Jurkat cells (Homo sapiens (Human)).
100 to 1000 nM
